target: KRasG12C (M1-K169, biotinylated on the N-terminus) (Homo sapiens (Human), UniProt P01116, G12C); assay: Covalent competition assay (scintillation proximity assay, competition with radiolabeled covalent probe Compound B); assay type: binding; details: in vitro KRASG12C activity; 10 nM KRasG12C:GDP, 25 nM radio-ligand and 475 nM unlabelled ligand, incubated 2 hours; read-out: Covalent Competition Assay IC50
pIC50: −log10 of the molar value.
quantity_measured: pIC50

Examples with their reported pIC50 follow.
compound: C=CC(=O)N1CC2(CC(n3nc(-c4ccc(OCCOC)cc4F)c(-c4c(Cl)c(C)cc5[nH]ncc45)c3C)C2)C1 (single isomer, unassigned) [Example 60b]
pIC50: < 5.30
--
compound: C=CC(=O)N1CC2(CC(n3nc(-c4ccc5cnccc5c4)c(-c4c(Cl)c(C)cc5[nH]ncc45)c3C)C2)C1 (single isomer, unassigned) [Example 25b]
pIC50: 5.11

// moving on: another record for pIC50
Could you share which pIC50 value was measured for C=CC(=O)N1CC2(CC(n3nc(-c4ccc(-n5nccc5N)nc4)c(-c4c(Cl)c(C)cc5[nH]ncc45)c3C)C2)C1 (single isomer, unassigned) [Example 7b] ?
< 5.30

----------
target: KRasG12C (M1-K169, biotinylated on the N-terminus) (Homo sapiens (Human), UniProt P01116, G12C); assay: Covalent competition assay (scintillation proximity assay, competition with radiolabeled covalent probe Compound B); format: binding; settings: in vitro KRASG12C activity; 10 nM KRasG12C:GDP, 25 nM radio-ligand and 475 nM unlabelled ligand, incubated 2 hours; read-out: Covalent Competition Assay IC50
pIC50: −log10 of the molar value.
quantity_measured: pIC50

Recorded pIC50 for C=CC(=O)N1CC2(CC(n3nc(-c4ccc5c(c4)CCN5C(C)=O)c(-c4c(Cl)c(C)cc5[nH]ncc45)c3C)C2)C1 (single isomer, unassigned) [Example 22b] , please?
< 4.30

Requested field: pIC50. Item: C=CC(=O)N1CC2(CC(n3nc(-c4ccc5nnccc5c4)c(-c4c(Cl)c(C)cc5[nH]ncc45)c3C)C2)C1 (single isomer, unassigned) [Example 71b]
< 5.30

Reported pIC50, molecule C=CC(=O)N1CC2(CC(n3nc(-c4ccc(COCCOC)cc4)c(-c4c(Cl)c(C)cc5[nH]ncc45)c3C)C2)C1 (single isomer, unassigned) [Example 39b] : ____
< 5.30

----------
This listing pairs compounds with measured pIC50.
molecular target: KRasG12C (M1-K169, biotinylated on the N-terminus) (Homo sapiens (Human), UniProt P01116, G12C); test: Covalent competition assay (scintillation proximity assay, competition with radiolabeled covalent probe Compound B); assay type: binding; details: in vitro KRASG12C activity; 10 nM KRasG12C:GDP, 25 nM radio-ligand and 475 nM unlabelled ligand, incubated 2 hours; read-out: Covalent Competition Assay IC50
pIC50 here is simply -log10 of the concentration when that concentration is written in mol/L.

compound: C=CC(=O)N1CC2(CC(n3nc(-c4ccccc4)c(-c4c(Cl)c(C)cc5[nH]nc(N)c45)c3C)C2)C1 (single isomer, unassigned) [Example 70b]
pIC50: 5.68

# pIC50 lookup, item C=CC(=O)N1CC2(CC(n3nc(-c4ccc(CN5CCCS5(=O)=O)cc4)c(-c4c(Cl)c(C)cc5[nH]ncc45)c3C)C2)C1 (single isomer, unassigned) [Example 5a]
7.37

Recorded pIC50 of C=CC(=O)N1CC2(CC(n3nc(-c4ccc5nn(CCOC)cc5c4)c(-c4c(Cl)c(C)cc5[nH]ncc45)c3C)C2)C1 (single isomer, unassigned) [Example 41b] , please.
6.03

# pIC50 lookup, item C=CC(=O)N1CC2(CC(n3nc(-c4ccc5c(cnn5CCN(C)C)c4)c(-c4c(Cl)c(C)cc5[nH]ncc45)c3C)C2)C1 (single isomer, unassigned) [Example 15a]
7.80

Recorded pIC50 for C=CC(=O)N1CC2(CC(n3nc(-c4ccncc4C)c(-c4c(Cl)c(C)cc5[nH]ncc45)c3C)C2)C1 (single isomer, unassigned) [Example 49a] , please?
6.64

----------
pIC50 for assorted compounds
molecular target: KRasG12C (M1-K169, biotinylated on the N-terminus) (Homo sapiens (Human), UniProt P01116, G12C); experiment: Covalent competition assay (scintillation proximity assay, competition with radiolabeled covalent probe Compound B); type: binding; settings: in vitro KRASG12C activity; 10 nM KRasG12C:GDP, 25 nM radio-ligand and 475 nM unlabelled ligand, incubated 2 hours; read-out: Covalent Competition Assay IC50
Please note pIC50 is a logarithmic value: minus log10 of concentration in mol/L. Answer with that number alone.

Field: example entries. Status: answers known.
compound: C=CC(=O)N1CC2(CC(n3nc(-c4ccc5nn(CCOC)cc5c4)c(-c4c(Cl)c(C)cc5[nH]ncc45)c3C)C2)C1 (single isomer, unassigned) [Example 41a]
pIC50: 7.96
--
compound: C=CC(=O)N1CC2(CC(n3nc(-c4cccnc4)c(-c4c(Cl)c(C)cc5[nH]ncc45)c3C)C2)C1 (single isomer, unassigned) [Example 27b]
pIC50: 4.70

Then there is this compound:
Record request: pIC50 value, item C=CC(=O)N1CC2(CC(n3nc(-c4cnc(N)c(F)c4)c(-c4c(Cl)c(C)cc5[nH]ncc45)c3C)C2)C1 (single isomer, unassigned) [Example 20b]
4.90
